subject-of-test: APC (303–739) (Homo sapiens)
Sequence (P25054 303-739): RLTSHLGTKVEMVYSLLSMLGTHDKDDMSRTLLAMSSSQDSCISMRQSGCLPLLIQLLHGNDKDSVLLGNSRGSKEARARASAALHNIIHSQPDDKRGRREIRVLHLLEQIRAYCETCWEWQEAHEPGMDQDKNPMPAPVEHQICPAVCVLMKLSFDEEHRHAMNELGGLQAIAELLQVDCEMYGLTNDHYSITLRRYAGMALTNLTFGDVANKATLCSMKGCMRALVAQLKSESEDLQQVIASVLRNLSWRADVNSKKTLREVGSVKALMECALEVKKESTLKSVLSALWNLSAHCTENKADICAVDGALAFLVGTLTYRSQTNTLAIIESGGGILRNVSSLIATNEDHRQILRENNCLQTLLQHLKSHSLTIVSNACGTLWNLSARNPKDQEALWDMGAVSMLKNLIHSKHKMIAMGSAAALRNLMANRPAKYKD
protocol-notes: FP competitive assay using tracer 7
Type: binding
applied-conditions: mean of 3 repeats; Table 3 source data; read-out: IC50(μM) mean
Where a SMILES comes first, the peptide text is derived from it. The star is where a group is joined. Isonicotinoyl = O=C(c1ccncc1)*; Pyrrole2CO = O=C(c1ccc[nH]1)*
measured-endpoint: IC50 (µM)
Kindly provide the numeric value in µM only, without the unit symbol.

# compound, IC50, µM
rows = [
    ("CC(C)C[C@H](NC(=O)[C@H](CO)NC(=O)[C@H](CCC(=O)O)NC(=O)CNC(=O)[C@H](C)NC(=O)c1ccc[nH]1)C(=O)N[C@@H](Cc1ccc(O)cc1)C(=O)N[C@@H](CCC(=O)O)C(N)=O [MAI-509] (Pyrrole2CO-AGESLYE-NH2)", 0.573),
]

Task item: Entry under review: CC(C)C[C@H](NC(=O)[C@H](CO)NC(=O)[C@H](CCC(=O)O)NC(=O)CNC(=O)[C@H](C)NC(=O)c1ccncc1)C(=O)N[C@@H](Cc1ccc(O)cc1)C(=O)N[C@@H](CCC(=O)O)C(N)=O [MAI-514] (Isonicotinoyl-AGESLYE-NH2) . Reported IC50?
Reply: 0.114

----------
subject-of-test: APC (303–739) (Homo sapiens)
protocol-notes: FP competitive assay using tracer 7
Format: binding
applied-conditions: Repeat 2; Table 3 source data; read-out: IC50(μM) Repeat 2
Where a SMILES comes first, the peptide text is derived from it. The star is where a group is joined. Benzoyl(4-Me) = Cc1ccc(C(=O)*)cc1; Pyrrole2CO = O=C(c1ccc[nH]1)*; Nicotinoyl = O=C(c1cccnc1)*; X2 = O=C(c1cncs1)*
measured-endpoint: IC50

# compound, subject-of-test, IC50
measured = [
    ("CC(C)C[C@H](NC(=O)[C@H](CO)NC(=O)[C@H](CCC(=O)O)NC(=O)CNC(=O)[C@H](C)NC(=O)c1cccnc1)C(=O)N[C@@H](Cc1ccc(O)cc1)C(=O)N[C@@H](CCC(=O)O)C(N)=O [MAI-513] (Nicotinoyl-AGESLYE-NH2)", "APC (303–739) (Homo sapiens)", "0.331 µM"),
    ("Cc1ccc(C(=O)N[C@@H](C)C(=O)NCC(=O)N[C@@H](CCC(=O)O)C(=O)N[C@@H](CO)C(=O)N[C@@H](CC(C)C)C(=O)N[C@@H](Cc2ccc(O)cc2)C(=O)N[C@@H](CCC(=O)O)C(N)=O)cc1 [MAI-515] ({Benzoyl(4-Me)}-AGESLYE-NH2)", "APC (303–739) (Homo sapiens)", "0.204 µM"),
    ("CC(C)C[C@H](NC(=O)[C@H](CO)NC(=O)[C@H](CCC(=O)O)NC(=O)CNC(=O)[C@H](C)NC(=O)c1cncs1)C(=O)N[C@@H](Cc1ccc(O)cc1)C(=O)N[C@@H](CCC(=O)O)C(N)=O [MAI-508] (X2-AGESLYE-NH2)", "APC (303–739) (Homo sapiens)", "0.194 µM"),
]

Please find the next compound below.
Task item: Entry under review: CC(C)C[C@H](NC(=O)[C@H](CO)NC(=O)[C@H](CCC(=O)O)NC(=O)CNC(=O)[C@H](C)NC(=O)c1ccc[nH]1)C(=O)N[C@@H](Cc1ccc(O)cc1)C(=O)N[C@@H](CCC(=O)O)C(N)=O [MAI-509] (Pyrrole2CO-AGESLYE-NH2) . Reported IC50?
Reply: 0.526 µM
